Tested on: CAKI-1
ASSAY_EXPLANATION: NCI tumour cell line growth inhibition, 48 h
Calls of active or inactive are those of the source. No stated cut-off is given here; in the data, active = GI50 up to about 1.1 µM and inactive = higher.
Possible outcomes: T = active, F = inactive

molecule=Cn1c(=O)nc2n(-c3ccc(F)c(F)c3)c3ccccc3nc-2c1=O assigned_category=F
molecule="CC(C)(CCCCC(C)(C)NCC1COc2ccccc2O1)NCC1COc2ccccc2O1 (stereo unspecified)" assigned_category=F
molecule="CC(C)c1ccccc1[S+]([O-])c1ccccc1C(C)(C)O (stereo unspecified)" assigned_category=F
molecule=COC(=O)C1=NN2c3ccccc3CN([C@@H](C)c3ccccc3)C(=O)[C@@H]2[C@H]1c1ccccc1 assigned_category=F
molecule=CCN(CC)C(=S)N/N=C(/C)c1cccc(/C(C)=N\NC(=S)N(CC)CC)n1 assigned_category=F
molecule=O=C(CCCn1ccnc1[N+](=O)[O-])NCCn1cncc1[N+](=O)[O-] assigned_category=F
molecule=CC(C)(C)OC(=O)n1c(Cl)c(C=O)c2ccccc21 assigned_category=F
molecule=COCn1cnc2c(=O)n(-c3ccc(C)cc3)c(=S)n(-c3ccc(C)cc3)c21 assigned_category=F
molecule=Cc1ccc2ccccc2c1CSc1nc(N)nc2c1ncn2CC(C)C assigned_category=F
molecule="COc1ccc(C(CC(=O)c2ccccc2)C(=O)c2ccc3c(c2)OCO3)cc1 (stereo unspecified)" assigned_category=F
molecule="COc1ccc([N+](=O)[O-])c2c(NCC(O)CO)ccnc12 (stereo unspecified)" assigned_category=F
molecule=CN(c1ccc(Cl)cc1)S(=O)(=O)c1ccccc1 assigned_category=F
molecule="CCCCC/C=C1/CC(CO)(COC(=O)CC(C(C)C)C(C)C)OC1=O (stereo unspecified)" assigned_category=F
molecule="COc1cc(O)c2c(c1)C(=O)c1cc(C)cc(O)c1C2=O [PHYSCION]" assigned_category=F
molecule="Clc1cccc(C2SCc3nc4ccccc4n32)c1 (stereo unspecified)" assigned_category=F
molecule="O=CN1CCN(CC(O)CN2CCCCC2)CC1 (stereo unspecified)" assigned_category=F
molecule=CC(=O)/N=C1\NC(=O)/C(=C/c2ccc(/C=C3/C(=O)N/C(=N\C(C)=O)N3C)cc2)N1C assigned_category=F
molecule=O=C(NN1CCCCC1)c1cc2cc(CCl)ccc2oc1=O assigned_category=F
molecule="O=c1ccc2ccc(O)cc2o1 [UMBELLIFERONE]" assigned_category=F
molecule=CCCOc1ccc(/C(Cl)=C(\C=O)c2ccc(OC)c(OC)c2)cc1OCCC assigned_category=F
molecule="COC(CCC[N+](C)(C)C)CC[N+](C)(C)C (stereo unspecified)" assigned_category=F
molecule="CN(CCO)CCCC1COc2ccccc2O1 (stereo unspecified)" assigned_category=F
molecule="CCC(c1ccccc1)c1cc(C(C)(C)C)cc(C(C)(C)C)c1O (stereo unspecified)" assigned_category=F
molecule=CCOC(=O)/C=C(\C(=O)OCC)n1cc(C)c(=O)n(Cc2cn(CCCCOC(C)=O)nn2)c1=O assigned_category=F
molecule=O=C1Sc2ccccc2/C1=N/Nc1ccccc1[N+](=O)[O-] assigned_category=F
molecule=Cc1cccc(NC(=O)c2cc3cc(/N=N/c4ccccc4Cl)ccc3oc2=O)c1 assigned_category=F
molecule=O[C@@]1(c2cccs2)c2cccc(Cl)c2[C@](O)(c2cccs2)c2cccc(Cl)c21 assigned_category=F
molecule=CCCCc1ccc(C#CC#Cc2ccc(CCCC)s2)s1 assigned_category=F
molecule=Cc1cn(CC2(CO)CCC2)c(=O)[nH]c1=O assigned_category=F
molecule=COc1c(O)cc(C(=O)O[C@@H]2Cc3c(O)cc(O)cc3O[C@@H]2c2cc(O)c(O)c(O)c2)cc1O assigned_category=F
molecule="COc1ccc(N[S+]([O-])c2ccc(OC)cc2)cc1 (stereo unspecified)" assigned_category=F
molecule="CC[C@]12C=CCN3CC[C@@]4(c5cc(Br)c(OC)cc5N(C)[C@H]4[C@@](O)(C(=O)NC(Cc4c[nH]c5ccccc45)C(=O)OC)[C@@H]1O)[C@@H]32 (stereo partly specified)" assigned_category=F
molecule=CC(=O)OC/C=C(/C=C/CNC1CCCCC1)OC(C)=O assigned_category=F
molecule=CN(C)CCN1Nc2c3ccccc3nc3c(C(=O)NCCCN(C)CCCNC(=O)c4ccc5c6c(c7ccccc7nc46)NN5CCN(C)C)ccc1c23 assigned_category=T
molecule="COc1cc(C(c2ccccc2)N2C(=O)CC[C@H]2C(=O)O)cc(OC)c1OC (stereo partly specified)" assigned_category=F
molecule=CN(C)c1ccc(C(=NN)c2ccc(N(C)C)cc2)cc1 assigned_category=T

====

Test system: RPMI-8226
ASSAY_EXPLANATION: NCI tumour cell line growth inhibition, 48 h
Activity calls are given as the source filed them. No stated cut-off is given here; in the data, active = GI50 up to about 1.1 µM and inactive = higher.
REPORTED_ENDPOINT: GI50

molecule=O=c1nc(/C=C/c2ccccc2Cl)cc2n1CCN2CCO study_target=RPMI-8226 reported_endpoint=GI50 experimental_result="> 100 µM (inactive)"
molecule="CC1=CC(C)C(C)N(CCNC(=O)Nc2ccccc2)c2ccccc21 (stereo not given)" study_target=RPMI-8226 reported_endpoint=GI50 experimental_result="14.6 µM (inactive)"
molecule="CC(=O)NC1C(OCc2ccccc2)OC(CO)C(O)C1OCC(=O)NC(C(=O)NC(CCC(=O)NCCCCCC(=O)Nc1ccc2c(c1)CN1C(=O)c3ccccc3C1=N2)C(N)=O)C(C)C (stereo not given)" study_target=RPMI-8226 reported_endpoint=GI50 experimental_result="97.7 µM (inactive)"
molecule=CN(N=O)C(=O)Nc1ccc(C(=O)O)cc1 study_target=RPMI-8226 reported_endpoint=GI50 experimental_result="> 100 µM (inactive)"
molecule=CCCCCCCCCCCNC=O study_target=RPMI-8226 reported_endpoint=GI50 experimental_result="28.1 µM (inactive)"

====

List of GI50 values.
Test system: Malme-3M
ASSAY_EXPLANATION: NCI tumour cell line growth inhibition, 48 h
The source made the active and inactive calls. Cut-off read from the data, not from the text of the source: active = GI50 up to about 1.1 µM and inactive = higher.
REPORTED_ENDPOINT: GI50

molecule="O=C(Cl)C1=C(c2ccccc2)C1c1ccccc1 (centres undefined)" study_target=Malme-3M reported_endpoint=GI50 experimental_result="> 100 µM (inactive)"
molecule=CCN(CC)c1ccc(/N=N/c2ccc(-c3nc4cccn(C)c-4n3)cc2)cc1 study_target=Malme-3M reported_endpoint=GI50 experimental_result="12.1 µM (inactive)"
molecule=COc1ccc(OC)c(NC(=O)CCC/C(CC(=O)c2ccc(O)c(OC)c2)=N\Nc2ccc([N+](=O)[O-])cc2)c1 study_target=Malme-3M reported_endpoint=GI50 experimental_result="> 100 µM (inactive)"
molecule=CN(C)CCN1Nc2c3ccccc3nc3c(C(=O)NCCCN(C)CCCNC(=O)c4ccc5c6c(c7ccccc7nc46)NN5CCN(C)C)ccc1c23 study_target=Malme-3M reported_endpoint=GI50 experimental_result="< 0.01 µM (active)"
molecule="COc1ccc(OC)c(NC(=O)C(=O)C(C(C)=O)c2nc3ccc(Cl)cc3nc2O)c1 (centres undefined)" study_target=Malme-3M reported_endpoint=GI50 experimental_result="> 50 µM (inactive)"
molecule=COc1ccc(/N=N/C(=N/NC(=O)c2ccc(C)cc2)c2ccc(N(CCC#N)CCC#N)cc2OC)cc1 study_target=Malme-3M reported_endpoint=GI50 experimental_result="> 100 µM (inactive)"
molecule=CCN(CC)C(=S)N/N=C(/C)c1cccc(/C(C)=N\NC(=S)N(CC)CC)n1 study_target=Malme-3M reported_endpoint=GI50 experimental_result="1.45 µM (inactive)"
molecule="CCOC1(OCC)C2C=CC1C(COS(=O)(=O)c1ccc(C)cc1)C2COS(=O)(=O)c1ccc(C)cc1 (centres undefined)" study_target=Malme-3M reported_endpoint=GI50 experimental_result="24.4 µM (inactive)"
molecule=O[C@@]12Cc3c([nH]c4ccccc34)[C@@H]3Oc4cccc5c4[C@@]31CCN(CC1CC1)[C@@H]2C5 study_target=Malme-3M reported_endpoint=GI50 experimental_result="19.5 µM (inactive)"
molecule=O=S1(=O)OCCOS(=O)(=O)C1Cc1ccccc1 study_target=Malme-3M reported_endpoint=GI50 experimental_result="> 100 µM (inactive)"
molecule=COc1c(Br)cc(/C=C(\C#N)c2cccnc2)cc1Br study_target=Malme-3M reported_endpoint=GI50 experimental_result="> 100 µM (inactive)"
molecule=Oc1ccc2ccccc2c1/N=N/c1cccc2ccccc12 study_target=Malme-3M reported_endpoint=GI50 experimental_result="91.6 µM (inactive)"
molecule=[N-]=[N+]=Nc1nnc(CCCCc2nnc(N=[N+]=[N-])o2)o1 study_target=Malme-3M reported_endpoint=GI50 experimental_result="> 100 µM (inactive)"
molecule=Brc1ccc(/N=N/N2CCCC2)cc1 study_target=Malme-3M reported_endpoint=GI50 experimental_result="> 100 µM (inactive)"
molecule="CCCCCCCCCCCCCCCCP(=O)(O)OP(=O)(O)OCC1OC(n2cnc3c(N)ncnc32)C(O)C1O (centres undefined)" study_target=Malme-3M reported_endpoint=GI50 experimental_result="22.2 µM (inactive)"
molecule=Cc1ccnc(NC(NC(=O)c2ccccc2)(C(F)(F)F)C(F)(F)F)c1 study_target=Malme-3M reported_endpoint=GI50 experimental_result="> 100 µM (inactive)"
molecule=Cc1n[nH]/c(=N\S(=O)(=O)c2ccc(/N=N/c3c(O)c(C(=O)O)cc4ccccc34)cc2)s1 study_target=Malme-3M reported_endpoint=GI50 experimental_result="> 100 µM (inactive)"
molecule="CC(C)(C)OC(=O)C1C(=O)NC(=O)CC1CC(OCc1ccccc1)C(COCc1ccccc1)OCc1ccccc1 (centres undefined)" study_target=Malme-3M reported_endpoint=GI50 experimental_result="3.06 µM (inactive)"
molecule="CCN1c2cc(Br)cc3[nH]c(=O)n(c23)CCC1C (centres undefined)" study_target=Malme-3M reported_endpoint=GI50 experimental_result="21.5 µM (inactive)"
